Cited source for all entries: patent US8680012B2

# System: Alopecurus myosuroides (ALOMY)
# measurement_notes: Example B post-emergence herbicidal activity, glasshouse pot test
# Format: in vivo
# settings: 312 h, rate 250 g/ha, evaluated after 13 days, read-out: Post-emergence activity ALOMY (100=total damage to plant; 0=no damage to plant)
measured_parameter: pest or weed control at 250 g/ha

compound="CCOC[C@]12CC[C@H](O1)C(=O)C(c1cc(-c3ccc(Cl)cc3)ccc1CC)=C2O (single isomer, unassigned)" study_target="Alopecurus myosuroides (ALOMY)" measured_parameter="pest or weed control at 250 g/ha" measured_result=80%

Please turn your attention to the following entry.
// pest or weed control at 250 g/ha lookup, compound = CCc1ccc(-c2ccc(I)cc2)cc1C1=C(O)C(C)(C)OC(C)(C)C1=O , result: 100%

###

Each entry below carries its recorded pest or weed control at 250 g/ha.
# Tested on: Echinochloa crus-galli (ECHCG)
# measurement_notes: Example A pre-emergence herbicidal activity, glasshouse pot test
# Type: in vivo
# settings: 480 h, rate 250 g/ha, evaluated 20 days after spraying, read-out: Pre-emergence activity ECHCG (100=total damage to plant; 0=no damage to plant)
Your answer is read as %, so omit the unit and give the number.

Solved entries (count: 10):
compound=CCc1ccc(-c2ccc(Cl)cc2)cc1C1=C(O)C2(CCCC2)OCC1=O study_target="Echinochloa crus-galli (ECHCG)" measured_parameter="pest or weed control at 250 g/ha" measured_result=100
compound=Cc1ccc(-c2ccc(Cl)c(Cl)c2)cc1C1=C(O)C(C)(C)OC(C)(C)C1=O study_target="Echinochloa crus-galli (ECHCG)" measured_parameter="pest or weed control at 250 g/ha" measured_result=100
compound=Cc1ccc(-c2ccc(Cl)c(C(F)(F)F)c2)cc1C1=C(O)C(C)(C)OC(C)(C)C1=O study_target="Echinochloa crus-galli (ECHCG)" measured_parameter="pest or weed control at 250 g/ha" measured_result=70
compound="CCc1ccc(-c2ccc(Cl)cc2)cc1C1=C(O)C(C)(C)OC(C)(CC)C1=O (single isomer, unassigned)" study_target="Echinochloa crus-galli (ECHCG)" measured_parameter="pest or weed control at 250 g/ha" measured_result=100
compound=CCc1ccc(-c2ccc(Cl)c(Cl)c2)cc1C1=C(O)C(C)(C)OC(C)(C)C1=O study_target="Echinochloa crus-galli (ECHCG)" measured_parameter="pest or weed control at 250 g/ha" measured_result=80
compound=CCc1ccc(-c2ccc(Cl)cc2)cc1C1=C(O)C(C)(C)S(=O)(=O)C(C)(C)C1=O study_target="Echinochloa crus-galli (ECHCG)" measured_parameter="pest or weed control at 250 g/ha" measured_result=70
compound=Cc1cc(-c2ccc(C)c(C3=C(O)C(C)(C)OC(C)(C)C3=O)c2)ccc1Cl study_target="Echinochloa crus-galli (ECHCG)" measured_parameter="pest or weed control at 250 g/ha" measured_result=10
compound=Cc1ccc(-c2ccc(C(F)(F)F)cc2)cc1C1=C(O)C(C)(C)OC(C)(C)C1=O study_target="Echinochloa crus-galli (ECHCG)" measured_parameter="pest or weed control at 250 g/ha" measured_result=100
compound=Cc1ccc(-c2ccc(Cl)cc2Cl)cc1C1=C(O)C(C)(C)OC(C)(C)C1=O study_target="Echinochloa crus-galli (ECHCG)" measured_parameter="pest or weed control at 250 g/ha" measured_result=100
compound=CCc1ccc(-c2ccc(F)cc2)cc1C1=C(O)[C@@]2(C)CC[C@H](O2)C1=O study_target="Echinochloa crus-galli (ECHCG)" measured_parameter="pest or weed control at 250 g/ha" measured_result=70

// pest or weed control at 250 g/ha lookup, compound = CCc1ccc(-c2ccc(Cl)c(C)c2)cc1C1=C(O)C(C)(C)OC(C)(C)C1=O , result: 70

// pest or weed control at 250 g/ha lookup, compound = CCc1ccc(-c2ccc(Cl)cc2)cc1C1=C(O)C(C)(C)[S+]([O-])C(C)(C)C1=O (stereo not drawn) , result: 100

// pest or weed control at 250 g/ha lookup, compound = CCc1ccc(-c2ccc(Cl)c(F)c2)cc1C1=C(O)C(C)(C)OC(C)(C)C1=O , result: 100

// pest or weed control at 250 g/ha lookup, compound = CCc1ccc(-c2ccc(Cl)cc2Cl)cc1C1=C(O)C(C)(C)OC(C)(C)C1=O , result: 70

###

# Tested on: Amaranthus retroflexus (AMARE)
# measurement_notes: Example B post-emergence herbicidal activity, glasshouse pot test
# Format: in vivo
# settings: 312 h, rate 250 g/ha, evaluated after 13 days, read-out: Post-emergence activity AMARE (100=total damage to plant; 0=no damage to plant)
measured_parameter: pest or weed control at 250 g/ha (%)
Your answer is read as %, so omit the unit and give the number.

line_notation=CCc1ccc(-c2ccc(Cl)cc2)cc1C1=C(O)[C@@]2(C)C=C[C@H](O2)C1=O measured_parameter="pest or weed control at 250 g/ha" measured_result=0
line_notation=CC1(C)OC(C)(C)C(O)=C(c2cc(-c3ccc(Cl)cc3F)ccc2Cl)C1=O measured_parameter="pest or weed control at 250 g/ha" measured_result=0
line_notation=CCc1ccc(-c2ccc(Cl)c(F)c2F)cc1C1=C(O)C(C)(C)OC(C)(C)C1=O measured_parameter="pest or weed control at 250 g/ha" measured_result=30

Please turn your attention to the following entry.
Given the molecule CCc1ccc(-c2ccc(Cl)cc2C(F)(F)F)cc1C1=C(O)C(C)(C)OC(C)(C)C1=O and test system Amaranthus retroflexus (AMARE), the measured pest or weed control at 250 g/ha is 60

###

Each entry below carries its recorded pest or weed control at 250 g/ha.
# Tested on: Amaranthus retroflexus (AMARE)
# measurement_notes: Example B post-emergence herbicidal activity, glasshouse pot test
# Assay type: in vivo
# settings: 312 h, rate 250 g/ha, evaluated after 13 days, read-out: Post-emergence activity AMARE (100=total damage to plant; 0=no damage to plant)
Your answer is read as %, so omit the unit and give the number.

compound=CCc1ccc(-c2c(Cl)cc(Cl)cc2Cl)cc1C1=C(O)C(C)(C)OC(C)(C)C1=O measured_parameter="pest or weed control at 250 g/ha" measurement_unit=% measured_result=70
compound=CCc1ccc(-c2ccc(Cl)c([N+](=O)[O-])c2)cc1C1=C(O)C(C)(C)OC(C)(C)C1=O measured_parameter="pest or weed control at 250 g/ha" measurement_unit=% measured_result=0
compound=COc1ccc(-c2ccc(Cl)cc2F)cc1C1=C(O)C(C)(C)OC(C)(C)C1=O measured_parameter="pest or weed control at 250 g/ha" measurement_unit=% measured_result=0

// pest or weed control at 250 g/ha lookup, compound = CCc1ccc(-c2ccc(Cl)cc2)cc1C1=C(O)[C@]2(C)O[C@@H](CC2COC)C1=O (stereo partly shown) , result: 40

###

Each entry below carries its recorded pest or weed control at 500 g/ha.
# System: Digitaria sanguinalis (DIGSA)
# measurement_notes: Example A pre-emergence herbicidal activity, glasshouse pot test
# Format: in vivo
# settings: 480 h, rate 500 g/ha, evaluated 20 days after spraying, read-out: Pre-emergence activity DIGSA (100=total damage to plant; 0=no damage to plant)
Your answer is read as %, so omit the unit and give the number.

molecule=Cc1ccc(-c2ccc(F)cc2)cc1C1=C(O)C(C)(C)OC(C)(C)C1=O measured_result=50
molecule=Cc1ccc(-c2ccc(Cl)cc2)cc1C1=C(O)COCC1=O measured_result=70

// pest or weed control at 500 g/ha lookup, molecule = CCc1ccc(-c2ccc(Cl)cc2)cc1C1=C(O)C(C)(C)SC(C)(C)C1=O , result: 30

// pest or weed control at 500 g/ha lookup, molecule = CCc1ccc(-c2ccc(Cl)cc2)cc1C1=C(O)C(C)(C)C(=O)C(C)(C)C1=O , result: 100

// pest or weed control at 500 g/ha lookup, molecule = COC(=O)OC1=C(c2cc(-c3ccc(Cl)cc3)ccc2C)C(=O)C(C)(C)OC1 , result: 60

// pest or weed control at 500 g/ha lookup, molecule = CCc1ccc(-c2ccc(Cl)cc2)cc1C1=C(O)COCC1=O , result: 10

// pest or weed control at 500 g/ha lookup, molecule = CCCCC(=O)OC1=C(c2cc(-c3ccc(Cl)cc3)ccc2CC)C(=O)C(C)(C)OC1(C)C , result: 100

// pest or weed control at 500 g/ha lookup, molecule = Cc1ccc(-c2ccc(Cl)cc2)cc1C1=C(O)COC(C)(C)C1=O (single isomer, unassigned) , result: 70

// pest or weed control at 500 g/ha lookup, molecule = Cc1ccc(-c2ccc(Cl)cc2)cc1C1=C(O)C(C)(C)OC(C)(C)C1=O , result: 100

###

# System: Amaranthus retroflexus (AMARE)
# measurement_notes: Example B post-emergence herbicidal activity, glasshouse pot test
# Format: in vivo
# settings: 312 h, rate 250 g/ha, evaluated after 13 days, read-out: Post-emergence activity AMARE (100=total damage to plant; 0=no damage to plant)
Each entry below carries its recorded pest or weed control at 250 g/ha.
Your answer is read as %, so omit the unit and give the number.

Solved entries (count: 5):
compound=Cc1ccc(-c2ccc(Cl)c(F)c2)cc1C1=C(O)C(C)(C)C(=O)C(C)(C)C1=O measured_result=0
compound=CCc1ccc(-n2cnc(Cl)c2Cl)cc1C1=C(OC(=O)OC)C(C)(C)OC(C)(C)C1=O measured_result=0
compound="CCOC[C@]12CC[C@H](O1)C(=O)C(c1cc(-c3ccc(Cl)cc3)ccc1CC)=C2O (single isomer, unassigned)" measured_result=20
compound=Cc1ccc(-c2ccc(Cl)cc2Cl)cc1C1=C(O)C(C)(C)SC(C)(C)C1=O measured_result=40
compound=CCc1ccc(-c2ccc(Cl)c(F)c2)cc1C1=C(O)C(C)(C)S(=O)(=O)C(C)(C)C1=O measured_result=20

// pest or weed control at 250 g/ha lookup, compound = CCc1ccc(-c2ccc(OC(F)F)cc2)cc1C1=C(O)C(C)(C)OC(C)(C)C1=O , result: 0

// pest or weed control at 250 g/ha lookup, compound = CC1(C)OC(C)(C)C(O)=C(c2cc(-c3ccc(Cl)cc3)ccc2Br)C1=O , result: 20
